We begin with a simple list: items and their reported GI50.
- System: SK-MEL-28
- PROTOCOL NOTES: NCI tumour cell line growth inhibition, 48 h
Calls of active or inactive are those of the source. No stated cut-off is given here; in the data, active = GI50 up to about 1.1 µM and inactive = higher.

Please review the following examples before continuing.
MOLECULE | OBSERVED MEASUREMENT
COc1ccc(Nc2nc3cc(C(F)(F)F)ccc3nc2C(=O)O)cc1OC | 47.5 µM (inactive)
COc1ccc(N2C(=O)C3c4[nH]c5ccccc5c4C4CCC(c5ccccc5)CC4C3C2=O)cc1 (stereo unspecified) | > 54.6 µM (inactive)
Cc1cc2c(-c3ccccc3)cc(=O)[nH]c2cc1N | > 100 µM (inactive)
CCOc1nc2sc3c(c2c(=O)n1CCSSCCn1c(OCC)nc2sc4c(c2c1=O)CCCC4)CCCC3 | > 100 µM (inactive)
C/C(=N\c1ccc(Cl)c(Cl)c1)c1ccncc1 | > 100 µM (inactive)

# input For the molecule shown here, `NS(=O)(=O)c1ccc(NNC(=O)c2cccc3c(=O)c4ccccc4[nH]c23)cc1` , give the reported GI50.
# output > 100 µM (inactive)

# input Further, for O=C(CC12C3C4C1C1C2C3C41CC(=O)NO)NO (stereo unspecified) ?
# output 60.4 µM (inactive)

# input Next record, please: `Cc1cc(C)c2ccc(N3CCNCC3)nc2n1`
# output > 100 µM (inactive)

# input Also, NP(=O)(Oc1c2occc2cc2ccc(=O)oc12)N(CCCl)CCCl (stereo unspecified) please.
# output > 100 µM (inactive)

# input Another molecule to check: CN(C)CC1CCCC(CN(C)C)C1=NOC(=O)c1ccccc1 (stereo unspecified)
# output > 100 µM (inactive)

# input Input `CC(C)OP(=O)(OC(C)C)/C(I)=N/Nc1ccc([N+](=O)[O-])cc1`
# output > 100 µM (inactive)

====

- System: DMS-273
- PROTOCOL NOTES: NCI tumour cell line growth inhibition, 48 h
Active and inactive are the calls of the source. Cut-off read from the data, not from the text of the source: active = GI50 up to about 1.1 µM and inactive = higher.
READOUT KIND: GI50

RECORD SMILES | EXPERIMENTAL SYSTEM | READOUT KIND | OBSERVED MEASUREMENT
O=c1oc2ccccc2n1P(=O)(n1c(=O)oc2ccccc21)n1c(=O)oc2ccccc21 | DMS-273 | GI50 | > 100 µM (inactive)
O=C(CCc1nnc2s/c(=C\c3ccccc3[N+](=O)[O-])c(=O)n12)Nc1cc(Cl)c(Cl)cc1Cl | DMS-273 | GI50 | 54.3 µM (inactive)
COc1ccc2c(c1)[n+]([O-])c(-c1ccc([N+](=O)[O-])cc1)c(N)[n+]2[O-] | DMS-273 | GI50 | > 100 µM (inactive)

# input // GI50 lookup, key: `CN(CCN(C)C(=O)CCOS(C)(=O)=O)C(=O)CCOS(C)(=O)=O`
# output 74 µM (inactive)

====

- System: SNB-75
- PROTOCOL NOTES: NCI tumour cell line growth inhibition, 48 h
Active and inactive are the calls of the source. No stated cut-off is given here; in the data, active = GI50 up to about 1.1 µM and inactive = higher.
READOUT KIND: GI50

COMPOUND | OBSERVED MEASUREMENT
O=C1NCC2(CCN(Cc3ccccc3)CC2)N1 | > 100 µM (inactive)
O=C(O)CCC(=O)c1ccc[nH]1 | > 100 µM (inactive)

Turning now to a further record.
# input GI50 lookup needed for `Cc1nc2ccccc2[nH]/c1=N/Nc1ccccc1` , thanks.
# output 18.1 µM (inactive)

====

- Test system: UACC-257
- PROTOCOL NOTES: NCI tumour cell line growth inhibition, 48 h
The source made the active and inactive calls. No stated cut-off is given here; in the data, active = GI50 up to about 1.1 µM and inactive = higher. Where a SMILES comes first, the peptide text is derived from it. The star is where a group is joined. Fmoc = O=C(OCC1c2ccccc2-c2ccccc21)*; OBn = c1ccc(CO*)cc1; tBu = CC(C)(C)*
Attribute: GI50

Please review the entries below; each comes with its answer.
COMPOUND | EXPERIMENTAL SYSTEM | GI50
CC(=O)NCCC1CN(C(=O)/C=C\I)c2ccccc21 (stereo not given) | UACC-257 | 13.8 µM (inactive)
COc1ccc2oc(=N)c(C(=O)NCc3ccccc3)cc2c1 | UACC-257 | 24.8 µM (inactive)
CC(OC(C)(C)C)C(NC(=O)OCC1c2ccccc2-c2ccccc21)C(=O)NC(Cc1ccccc1)C(=O)OCc1ccccc1 (stereo not given) (Fmoc-Thr(tBu)-Phe-OBn; configuration not given here) | UACC-257 | > 100 µM (inactive)

# input Request the reported GI50 associated with `Cc1cccc2c1C/C(=C\c1cccc(C)c1C(=O)O)C2=O`
# output > 100 µM (inactive)

# input Another compound: `O=C(O)CCCCn1cnc2c(S)ncnc21`
# output > 100 µM (inactive)

# input Check `CN(C)C1(C#N)CCC2(CC1)OCCO2` too.
# output > 100 µM (inactive)

====

- Tested on: SF-268
- PROTOCOL NOTES: NCI tumour cell line growth inhibition, 48 h
Activity calls are given as the source filed them. No stated cut-off is given here; in the data, active = GI50 up to about 1.1 µM and inactive = higher.
Items are presented alongside their recorded GI50.

Field: example entries. Status: answers known.
MOLECULE | EXPERIMENTAL SYSTEM | GI50
O=c1[nH]c2c(c3ccccc13)CCc1ccccc1-2 | SF-268 | > 100 µM (inactive)
Oc1cccnc1/C=N/OCc1ccccc1 | SF-268 | > 100 µM (inactive)
Nc1n[nH]c2nc3ccccc3nc12 [QUINOXALINE1] | SF-268 | 66.4 µM (inactive)

# input Entry COc1ccc(C2Oc3ccc(Cl)cc3C=C2[N+](=O)[O-])cc1 (stereo unspecified) : reported GI50 = ?
# output > 100 µM (inactive)

# input For `CSc1nc2[nH]c(=O)c(C)nc2c(=O)[nH]1` then?
# output > 100 µM (inactive)

# input Can you check `O=C1C(Br)=CC2(C=C1Br)CCNC1=C2C(=O)c2[nH]cnc2C1=O` next?
# output 14.8 µM (inactive)

====

- System: HT-29
- PROTOCOL NOTES: NCI tumour cell line growth inhibition, 48 h
The source made the active and inactive calls. No stated cut-off is given here; in the data, active = GI50 up to about 1.1 µM and inactive = higher.
Entries annotated with measured GI50

Sample records with GI50:
COMPOUND | GI50
COC(=O)C1SC[C@H]2C(=O)N(c3ccccc3)C(=O)N12 (some centres not stated) | > 100 µM (inactive)
O=C1N/C(=N/N=C/c2ccccc2)N/C1=C\c1cccs1 | 19.1 µM (inactive)
Cc1c(-c2ccccc2)cc(O)c2nc3ccccc3n12 | > 100 µM (inactive)
N#CC1(C#N)NC(c2cccnc2)C(C#N)(C#N)NC1c1cccnc1 (configuration not stated) | > 100 µM (inactive)
Cc1cccc2c1C/C(=C\c1cccc(C)c1C(=O)O)C2=O | 70.1 µM (inactive)

# input GI50 for `CC(C)(Cc1ccccc1)NC1=NCCO1` ?
# output > 100 µM (inactive)

# input Again, but for `C=CCP(=O)(CC=C)C(Cl)Cl`
# output > 100 µM (inactive)

# input And `N#CC(C#N)=Cc1cccc(Oc2ccccc2)c1` ?
# output 22.7 µM (inactive)

# input Likewise for `O=c1[nH]c2c(c3ccccc13)CCc1ccccc1-2` ?
# output > 100 µM (inactive)

# input Try COc1ccc(N2C(=O)C3c4[nH]c5ccccc5c4C4CCC(c5ccccc5)CC4C3C2=O)cc1 (configuration not stated) next.
# output > 57.5 µM (inactive)

====

- Tested on: SNB-19
- PROTOCOL NOTES: NCI tumour cell line growth inhibition, 48 h
Calls of active or inactive are those of the source. Rule as the data show it: active = GI50 up to about 1.1 µM and inactive = higher.
In this exercise, the only acceptable responses are label 1 = active, label 0 = inactive

Illustrative cases are given below, each with its answer.
COMPOUND | LABEL VALUE
O=c1[nH]c(N/N=C\C(O)C(O)C(O)CO)nc2ccccc12 (centres undefined) | label 0
COc1ccc(-c2c(=O)[nH]n3c(=S)[nH]c(-c4ccccc4)nc23)cc1OC | label 0
O=C1OC(C2OC(=O)c3cc(O)c(O)c(O)c3-c3c(O)c(O)c4oc(=O)c5c(c(O)c(O)c6oc(=O)c3c4c65)-c3c(cc(O)c(O)c3O)C(=O)OCC2O)C2OC(=O)c3c(c(O)c(O)c(O)c3[C@H]2O)-c2c1cc(O)c(O)c2O (some centres undefined) | label 0
CC(=O)Nc1ccc(/N=N\c2c(O)c(S(=O)(=O)O)cc3cc(S(=O)(=O)O)ccc23)cc1 | label 0

# input Check the results log: what was the call for `COc1cccc(-c2cc(O)c3cc(N4CCCC4)ccc3n2)c1` ?
# output label 1

# input Also need O=C1OC(C2Cc3ccccc3C2=O)c2ccccc21 (centres undefined) , thanks.
# output label 0

# input Now consider `CN(C)c1ccc(/C=N/c2ccc(-c3nc4ccccc4s3)cc2)cc1` and answer again.
# output label 0

# input Same thing, different compound: Cc1ccc(S(=O)(=O)NC2CCCCO2)cc1 (centres undefined)
# output label 0

# input Same for `O=C(O)c1cc2sc(C(=O)O)cc2s1`
# output label 0
